experiment: self-splicing fitness, log relative to wild type (ln ratio); higher = more splicing; Tetrahymena group I intron in knt gene, E. coli kanamycin selection, DiMSum; sequences stand for … in CUCUCU…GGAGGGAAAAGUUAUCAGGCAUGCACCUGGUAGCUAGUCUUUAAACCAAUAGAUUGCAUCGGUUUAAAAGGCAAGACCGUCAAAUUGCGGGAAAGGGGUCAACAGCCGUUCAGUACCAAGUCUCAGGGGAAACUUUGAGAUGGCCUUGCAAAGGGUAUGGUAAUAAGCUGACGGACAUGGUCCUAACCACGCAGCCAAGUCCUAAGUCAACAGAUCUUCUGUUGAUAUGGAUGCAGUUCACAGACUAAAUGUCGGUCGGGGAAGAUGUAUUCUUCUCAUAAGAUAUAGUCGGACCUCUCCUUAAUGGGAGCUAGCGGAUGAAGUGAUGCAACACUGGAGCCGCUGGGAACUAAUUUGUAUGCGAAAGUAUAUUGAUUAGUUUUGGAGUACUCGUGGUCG; details: 37 °C;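 further: selection with 25 µg/mL kanamycin versus none on LB agar overnight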
Property: self-splicing fitness (ln)
Just the number, please, no unit attached.

Answered cases to consult:
INSERT INTO results (sequence_content, quantitative_result) VALUES
  ('UUCAAGCAAUAUUACGUCGC', -2.17),
  ('UUUAAGCAAUAUUACGGCGA', 0.503),
  ('UAUUAGCAAUAUUACGUAGU', -2.47);

Please fill in: self-splicing fitness (ln) reported for "CAAGAGCAAUAUUACGCAUA" = -2.3

Please fill in: self-splicing fitness (ln) reported for "CAAGAGCAAUAUUACGGAUC" = -3.27

Please fill in: self-splicing fitness (ln) reported for "UCCCAGCAAUAUUACGGUCA" = 0.226

Please fill in: self-splicing fitness (ln) reported for "GGUAAGCAAUAUUACGGGGC" = -2.09

Please fill in: self-splicing fitness (ln) reported for "UUAAAGCAAUAUUACGUCCU" = -0.281

Please fill in: self-splicing fitness (ln) reported for "UCUAAGCAAUAUUACGGGGG" = -0.678

Please fill in: self-splicing fitness (ln) reported for "GCGUAGCAAUAUUACGUAAU" = -0.693

Please fill in: self-splicing fitness (ln) reported for "GCCAAGCAAUAUUACGAGGG" = -1.82

Please fill in: self-splicing fitness (ln) reported for "AAGCAGCAAUAUUACGUCUC" = -0.717

Please fill in: self-splicing fitness (ln) reported for "CCCGAGCAAUAUUACGACAA" = -2.85

Please fill in: self-splicing fitness (ln) reported for "CAUUAGCAAUAUUACGAGGC" = -1.85

Please fill in: self-splicing fitness (ln) reported for "GUAGAGCAAUAUUACGCUUA" = -0.371

Please fill in: self-splicing fitness (ln) reported for "ACUGAGCAAUAUUACGCAUG" = -2.23

###

assay: self-splicing fitness, log relative to wild type (ln ratio); higher = more splicing; Tetrahymena group I intron in knt gene, E. coli kanamycin selection, DiMSum; sequences stand for … in CUCUCU…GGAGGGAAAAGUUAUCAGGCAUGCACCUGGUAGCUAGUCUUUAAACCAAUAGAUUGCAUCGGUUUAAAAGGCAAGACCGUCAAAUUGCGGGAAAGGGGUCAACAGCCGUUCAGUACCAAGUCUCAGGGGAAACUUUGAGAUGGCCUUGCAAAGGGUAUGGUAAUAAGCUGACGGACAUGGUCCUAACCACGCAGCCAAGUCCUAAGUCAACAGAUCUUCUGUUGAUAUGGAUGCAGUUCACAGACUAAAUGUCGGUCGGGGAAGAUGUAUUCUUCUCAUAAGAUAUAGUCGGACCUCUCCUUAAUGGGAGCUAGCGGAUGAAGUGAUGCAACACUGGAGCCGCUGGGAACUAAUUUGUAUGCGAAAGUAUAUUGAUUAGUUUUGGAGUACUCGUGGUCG; settings: 37 °C
Recorded self-splicing fitness (ln) determines the group label, using lo = under -2, mid = from -2 up to -0.8, hi = -0.8 and over

GET /class?item= "AGCCAGCAAUAUUACGUCCG"
mid

###

test: self-splicing fitness, log relative to wild type (ln ratio); higher = more splicing; Tetrahymena group I intron in knt gene, E. coli kanamycin selection, DiMSum; sequences stand for … in CUCUCU…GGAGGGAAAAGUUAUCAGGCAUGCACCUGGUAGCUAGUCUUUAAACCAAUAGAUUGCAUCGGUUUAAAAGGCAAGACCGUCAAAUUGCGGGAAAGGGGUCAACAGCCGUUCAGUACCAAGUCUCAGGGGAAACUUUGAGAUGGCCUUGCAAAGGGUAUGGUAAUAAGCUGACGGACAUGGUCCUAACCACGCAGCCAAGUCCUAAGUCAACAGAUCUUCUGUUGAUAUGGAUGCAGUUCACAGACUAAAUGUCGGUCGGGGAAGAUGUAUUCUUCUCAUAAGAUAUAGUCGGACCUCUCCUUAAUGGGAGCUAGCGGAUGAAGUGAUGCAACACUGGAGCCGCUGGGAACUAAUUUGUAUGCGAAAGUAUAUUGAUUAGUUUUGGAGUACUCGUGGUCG; details: 37 °C
Label 1 when self-splicing fitness (ln) >= -0.7; otherwise 0.

INSERT INTO measurements (sequence_content, label_value) VALUES
  ('UUGGAGCAAUAUUACGCCAG', 0),
  ('CAUCAGCAAUAUUACGGAGG', 0),
  ('AGAGAGCAAUAUUACGCUUU', 0);

Please tell me: is the sequence "AUUAAGCAAUAUUACGUCCG" at or over -0.7 in terms of self-splicing fitness (ln)?
0

Please tell me: is the sequence "GGGGAGCAAUAUUACGAACA" at or over -0.7 in terms of self-splicing fitness (ln)?
1

Please tell me: is the sequence "GGCUAGCAAUAUUACGUAUC" at or over -0.7 in terms of self-splicing fitness (ln)?
1

Please tell me: is the sequence "GCGUAGCAAUAUUACGUUCU" at or over -0.7 in terms of self-splicing fitness (ln)?
0

Please tell me: is the sequence "CUUGAGCAAUAUUACGAGUG" at or over -0.7 in terms of self-splicing fitness (ln)?
0

Please tell me: is the sequence "CACCAGCAAUAUUACGAUGG" at or over -0.7 in terms of self-splicing fitness (ln)?
0

Please tell me: is the sequence "CACGAGCAAUAUUACGUUAA" at or over -0.7 in terms of self-splicing fitness (ln)?
0

Please tell me: is the sequence "UGUCAGCAAUAUUACGUAUC" at or over -0.7 in terms of self-splicing fitness (ln)?
0

Please tell me: is the sequence "UGAUAGCAAUAUUACGGAAC" at or over -0.7 in terms of self-splicing fitness (ln)?
0

Please tell me: is the sequence "AAAUAGCAAUAUUACGUCAC" at or over -0.7 in terms of self-splicing fitness (ln)?
0

Please tell me: is the sequence "CGAAAGCAAUAUUACGACAG" at or over -0.7 in terms of self-splicing fitness (ln)?
1

Please tell me: is the sequence "GUUCAGCAAUAUUACGAUAA" at or over -0.7 in terms of self-splicing fitness (ln)?
1

###

sequences and their reported self-splicing fitness (ln)
experiment: self-splicing fitness, log relative to wild type (ln ratio); higher = more splicing; Tetrahymena group I intron in knt gene, E. coli kanamycin selection, DiMSum; sequences stand for … in CUCUCU…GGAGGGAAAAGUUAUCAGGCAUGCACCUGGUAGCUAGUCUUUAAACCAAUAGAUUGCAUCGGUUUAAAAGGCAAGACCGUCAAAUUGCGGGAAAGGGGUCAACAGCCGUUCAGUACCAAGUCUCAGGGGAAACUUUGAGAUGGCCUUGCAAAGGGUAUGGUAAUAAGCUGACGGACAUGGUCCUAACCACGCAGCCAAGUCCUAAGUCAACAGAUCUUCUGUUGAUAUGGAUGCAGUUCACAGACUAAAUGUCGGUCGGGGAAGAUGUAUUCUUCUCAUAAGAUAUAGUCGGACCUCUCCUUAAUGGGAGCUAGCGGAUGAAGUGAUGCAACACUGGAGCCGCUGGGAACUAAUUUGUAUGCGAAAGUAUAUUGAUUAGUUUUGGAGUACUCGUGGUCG; details: 37 °C
Just the number, please, no unit attached.

INSERT INTO assay_data (sequence_content, quantitative_result) VALUES
  ('AAGGAGCAAUAUUACGAGCU', -0.204),
  ('GGUCAGCAAUAUUACGGCUU', -0.0465),
  ('GCGCAGCAAUAUUACGAUGU', -0.279),
  ('UCGCAGCAAUAUUACGGUAG', -0.887),
  ('UCCUAGCAAUAUUACGGCGC', -1.69),
  ('UAAAAGCAAUAUUACGUAGA', -1.45),
  ('AAGAAGCAAUAUUACGCGCA', 0.115),
  ('ACCUAGCAAUAUUACGUCUG', -2.03),
  ('AUCAAGCAAUAUUACGCUUA', -0.843),
  ('GACGAGCAAUAUUACGUUAG', -2.56);

Please fill in: self-splicing fitness (ln) reported for "AUAGAGCAAUAUUACGCCCA" = -1.03

Please fill in: self-splicing fitness (ln) reported for "GAUCAGCAAUAUUACGAUGG" = 0.121

Please fill in: self-splicing fitness (ln) reported for "AUCCAGCAAUAUUACGAAAG" = -2.76

Please fill in: self-splicing fitness (ln) reported for "GGGAAGCAAUAUUACGUUGG" = -1.1

Please fill in: self-splicing fitness (ln) reported for "GGGGAGCAAUAUUACGUGGC" = -1.12

Please fill in: self-splicing fitness (ln) reported for "ACGAAGCAAUAUUACGUUCU" = -0.898
